system: Streptococcus mutans PCM 2502; assay: Disk diffusion, zone of bacterial growth inhibition; type: cell-based; settings: Streptococcus mutans, PCM2502, 100 μg of compound, read-out: Zone of bacterial growth inhibition, S.m
observable: zone of inhibition at 100 µg/disc
Give your result as the value with the unit written after it.

compound	zone of inhibition at 100 µg/disc
O=C(NNC(=S)Nc1ccc(Cl)cc1Cl)c1ccncc1 [Compound 10]	28 mm
[H]/N=C(\N/C(=N/[H])NCCCCCCNC(=N)NC(=N)Nc1ccc(Cl)cc1)Nc1ccc(Cl)cc1 [CLX, chlorhexidine digluconate, reference compound]	26 mm
O=C(NNC(=S)NCCN1CCOCC1)c1ccccn1 [Compound 3]	0 mm

Below: the item to evaluate.
Return zone of inhibition at 100 µg/disc for the following compound: O=C(NNC(=S)Nc1ccccc1F)c1ccccn1 [Compound 1]
10 mm
